Ref: patent US20230265192A1

# assayed-target: T1, His-tagged cynomolgus CTLA-4 (CT4-C5227; Acro Biosystems) (cynomolgus, UniProt G7PL88 36-161)
# T1 construct: also called soluble cynomolgus CTLA-4; cyno CTLA-4
# T1 sequence (G7PL88 entry or part of it limits assumed, form in doubt): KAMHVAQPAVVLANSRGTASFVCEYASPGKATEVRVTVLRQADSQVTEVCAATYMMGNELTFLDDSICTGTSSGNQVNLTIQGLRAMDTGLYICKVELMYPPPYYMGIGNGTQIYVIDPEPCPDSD
# assay-details: BLI (Octet)
property: Kd

For each of the binders below, note its Kd.
1. antibody A11 (L11H11) (antibody, V domains shown, also called aCTLA-4.31) VH: QVQLVESGGGVVQPGRSLRLSCAASGFTFSSYGMHWVRQAPGKGLEWVAVIWYDVGNKYYIDSVKGRFTISRDNSKNTLYLQMNSLRAEDTAVYYCARDYYGSGSPRHFDYWGQGTLVTVSS VL: DIQLTQSPSFLSASVGDRVTITCRASQGISSYLAWYQQKPGKAPKLLIYAASTLQSGVPSRFSGSGSGTEFTLTISSLQPEDFATYYCQQLNSYPPTFGQGTKVEIK
2. antibody A4 (L4H4) (antibody, V domains shown, also called aCTLA-4.29) VH: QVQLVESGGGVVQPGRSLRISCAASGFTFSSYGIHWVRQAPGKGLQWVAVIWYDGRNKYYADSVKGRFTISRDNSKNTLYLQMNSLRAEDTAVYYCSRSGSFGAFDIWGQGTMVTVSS VL: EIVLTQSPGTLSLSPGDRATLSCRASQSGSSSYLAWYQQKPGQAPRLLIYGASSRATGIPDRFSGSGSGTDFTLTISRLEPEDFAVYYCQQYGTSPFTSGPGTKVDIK
3. antibody A1 (L1H1) (antibody, V domains shown, also called aCTLA-4.9; CTLA4.A1) VH: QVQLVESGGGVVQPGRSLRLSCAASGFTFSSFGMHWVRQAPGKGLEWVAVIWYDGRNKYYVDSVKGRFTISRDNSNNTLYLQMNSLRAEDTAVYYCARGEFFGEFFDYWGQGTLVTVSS VL: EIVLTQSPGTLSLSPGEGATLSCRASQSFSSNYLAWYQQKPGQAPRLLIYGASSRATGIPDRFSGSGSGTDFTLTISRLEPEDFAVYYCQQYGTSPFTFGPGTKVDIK

1.6 nM
1.2 nM
0.96 nM
